experiment: Modified microsomal clearance assay with or without NADPH, mouse liver microsomes; assay type: in vitro ADME; settings: mouse, liver microsomes, pH 7.4, MLM, reaction initiated by test compound, +NADPH
reported-property: CLint scaled at 1 µM (L/h/kg)
Report only the number, with the unit L/h/kg understood.

O=C(Nc1nc[nH]n1)c1nn(-c2ccccc2)c2c1CCC2 : 47.3
O=C(Nc1n[nH]c(-c2ccc(F)cc2F)n1)c1nn(-c2ccccc2)c2c1CCCC2 : 626

# next molecule below
## Task Entry under review: Cn1nc(C(=O)Nc2n[nH]c(-c3c(F)cccc3F)n2)cc1C1CC1 . Reported CLint scaled at 1 µM?
## Result 589

Source listed as paper PMC11020070.
